# targetOrTestSystem: Gamma-secretase
# experimentalDetails: Inhibition of gamma-secretase (unknown origin) expressed in HEK293 cells co-expressing […] mutant assessed as reduction of amyloid beta-42 production
# Type: cell-based, Homo sapiens
pIC50: −log10 of the molar value.
readoutKind: pIC50

Illustrative cases are given below, each with its answer.
CS(=O)(=O)CC[C@@H]1OCC[C@@]2(S(=O)(=O)c3ccc(C#N)cc3)C3=C(OC[C@@H]12)C(F)(F)C=CC3=O    6.39
O=S(=O)(NC[C@@H]1CCC[C@@]2(S(=O)(=O)c3ccc(C(F)(F)F)cc3)c3c(F)ccc(F)c3OC[C@@H]12)C(F)(F)F    7.49
O=S(=O)(NC[C@@H]1CC[C@@]2(S(=O)(=O)c3ccc(C(F)(F)F)cc3)c3c(F)ccc(F)c3OC[C@H]2C1)C1CC1    7.72

1: CC[C@@H]1C[C@@H]2[C@@H](CC[C@@]3(S(=O)(=O)c4ccc(C(F)(F)F)cc4)c4c(F)ccc(F)c4OC[C@@H]23)NS1(=O)=O
2: CS(=O)(=O)CC[C@@H]1OCC[C@@]2(S(=O)(=O)c3ccc(Cl)cc3)c3c(F)ccc(F)c3OC[C@@H]12
3: CS(=O)(=O)CC[C@@H]1CCC[C@@]2(S(=O)(=O)c3ccc(C(F)(F)F)cc3)c3c(F)ccc(F)c3OC[C@@H]12
In: Falling order of pIC50, please. Quick reminder: the answer is the labels in the order asked.
Out: 2, 1, 3

---

# targetOrTestSystem: Gamma-secretase
# experimentalDetails: Inhibition of gamma-secretase (unknown origin) expressed in HEK293 cell membrane co-expressing […] mutant assessed as reduction of amyloid beta-40 production
# Type: cell-based, Homo sapiens
pIC50: −log10 of the molar value.
readoutKind: pIC50

A: CS(=O)(=O)CC[C@@H]1OCC[C@@]2(S(=O)(=O)c3ccc(Cl)cc3)c3c(F)ccc(F)c3OC[C@@H]12
B: O=C1C=CC(F)(F)C2=C1[C@]1(S(=O)(=O)c3ccc(C(F)(F)F)cc3)CC[C@@H](NS(=O)(=O)C3CC3)C[C@@H]1CO2
C: CC[C@@H]1C[C@@H]2[C@@H](CC[C@@]3(S(=O)(=O)c4ccc(C#N)cc4)C4=C(OC[C@@H]23)C(F)(F)C=CC4=O)NS1(=O)=O
D: O=S(=O)(NC[C@@H]1CC[C@@]2(S(=O)(=O)c3ccc(C(F)(F)F)cc3)c3c(F)ccc(F)c3OC[C@H]2C1)C1CC1
In: Sort (4 molecules) by pIC50: min first. Returns: the labels listed in the requested order.
Out: D, B, C, A

A: CS(=O)(=O)CC[C@@H]1CCC[C@@]2(S(=O)(=O)c3ccc(C(F)(F)F)cc3)C3=C(OC[C@@H]12)C(F)(F)C=CC3=O
B: CS(=O)(=O)CC[C@@H]1OCC[C@@]2(S(=O)(=O)c3ccc(C#N)cc3)C3=C(OC[C@@H]12)C(F)(F)C=CC3=O
In: Determine, for A and B , which has the greater value of pIC50. Response format: the label of the selected entry.
Out: A
(A: 8.72, B: 7.68)

---

# targetOrTestSystem: Gamma-secretase
# experimentalDetails: Inhibition of gamma-secretase (unknown origin) expressed in HEK293 cells co-expressing […] mutant assessed as reduction of amyloid beta-40 production
# Type: cell-based, Homo sapiens
readoutKind: IC50 (nM)

O=S(=O)(NC[C@@H]1CC[C@@]2(S(=O)(=O)c3ccc(C(F)(F)F)cc3)c3c(F)ccc(F)c3OC[C@H]2C1)C1CC1    6.8

P: CC[C@@H]1C[C@@H]2[C@@H](CC[C@@]3(S(=O)(=O)c4ccc(C#N)cc4)C4=C(OC[C@@H]23)C(F)(F)C=CC4=O)NS1(=O)=O
Q: CC[C@@H]1C[C@@H]2[C@@H](CC[C@@]3(S(=O)(=O)c4ccc(C(F)(F)F)cc4)c4c(F)ccc(F)c4OC[C@@H]23)NS1(=O)=O
In: Lower value for measured IC50? Options: P , Q Mark your selection by writing its label.
Out: Q

---

# targetOrTestSystem: Gamma-secretase
# experimentalDetails: Inhibition of gamma-secretase (unknown origin) expressed in HEK293 cell membrane co-expressing […] mutant assessed as reduction of amyloid beta-40 production
# Format: cell-based, Homo sapiens
readoutKind: IC50 (nM)

CS(=O)(=O)CC[C@@H]1OCC[C@@]2(S(=O)(=O)c3ccc(C#N)cc3)c3c(F)ccc(F)c3OC[C@@H]12    66

A: O=C1C=CC(F)(F)C2=C1[C@]1(S(=O)(=O)c3ccc(C(F)(F)F)cc3)CCC[C@@H](CNS(=O)(=O)C(F)(F)F)[C@@H]1CO2
B: CS(=O)(=O)CC[C@@H]1OCC[C@@]2(S(=O)(=O)c3ccc(Cl)cc3)C3=C(OC[C@@H]12)C(F)(F)C=CC3=O
In: Kindly identify which of A and B has the larger recorded IC50 value. Identify your selection by its label.
Out: A
(A: 78 nM, B: 1.2 nM)
